Sourced from the supplement of paper PMC9732359

# assay_method_text: protein stability index of a GFP-peptide fusion (yeast GPS) (PSI 1-4); higher = more stable; sorted into four equal gates, so the index is relative within each strain
# condition_details: ubr1∆
Label Condition met when protein stability index is at or above 2; anything below gets Condition not met.

1. NEVYSAYVVNDTAPKPN [DLS1] | Condition met
2. VYKDNLSFIQVRIDLGT [RPO31] | Condition not met
3. YGSSPKLLATSTKIIML [SRB8] | Condition not met
4. ELMDRTGLKLYSRITLI [RPP1] | Condition met
5. SAKAELEKLVDHHPEGL [PRE10] | Condition met
6. MNKIFTIFKSGEIDFIK [YML103C/NUP188] | Condition met
7. ETIIEADKSLPSSMATL [YJR042W/NUP85] | Condition met
8. LSCEKITHYAVRGGNIE [RRI1] | Condition met
9. ERKEQEEKEKEQSKEVG [BRN1] | Condition met
10. NRSAKNSKNDSANVELF [YCS4] | Condition met
11. QNLRKELLIYKKSQCKK [YIL149C/MLP2] | Condition not met
12. ETIKSLEDPYKYHYKEE [CSN9] | Condition met
